Molecular target: T1, OTULIN (OTU deubiquitinase with linear linkage specificity, FAM105B), His-tagged, biotin-labelled (human, UniProt Q96BN8 1-352, biotin (label; sites not stated))
T1 construct: OTULIN (FAM105B), cDNA in pET28a; also called HIS-OTULIN; source: E. coli BL21 (DE3), purified (His-tag Purification Resin), labelled with biotin; not shown: His6, N-terminal, kept
Experiment: peptide or protein array; HuProt human proteome microarray; 5 ug/5 ml biotin-labelled LUBAC or OTULIN in solution, 1 h at room temperature; Cy5-streptavidin, scanned at 635 nm; BSA as negative control; hits: Z-score >= 3 and I_(Mean_Ratio) >= 1.4
Settings: both partners purified
endpoint_name: binding result

CUTA (natural protein, human, UniProt O60888 33-179, looked up, CUTA; protein on the human proteome microarray; source: spotted on the HuProt human proteome microarray) RLLLLPRVLLTMASGSPPTQPSPASDSGSGYVPGSVSAAFVTCPNEKVAKEIARAVVEKRLAACVNLIPQITSIYEWKGKIEEDSEVLMMIKTQSSLVPALTDFVRSVHPYEVAEVIALPVEQGNFPYLQWVRQVTESVSDSITVLP :: binds
DNALI1 (natural protein, human, UniProt O14645 1-258, looked up, DNALI1; protein on the human proteome microarray; source: spotted on the HuProt human proteome microarray) MIPPADSLLKYDTPVLVSRNTEKRSPKARLLKVSPQQPGPSGSAPQPPKTKLPSTPCVPDPTKQAEEILNAILPPREWVEDTQLWIQQVSSTPSTRMDVVHLQEQLDLKLQQRQARETGICPVRRELYSQCFDELIREVTINCAERGLLLLRVRDEIRMTIAAYQTLYESSVAFGMRKALQAEQGKSDMERKIAELETEKRDLERQVNEQKAKCEATEKRESERRQVEEKKHNEEIQFLKRTNQQLKAQLEGIIAPKK :: binds
